Recorded upper right quadrant, percent of cells AF647+ / hTcRβ-PerCP+ values for a group of binders are listed next.
subject_of_test: T1, human CD3e (T-cell surface glycoprotein CD3 epsilon chain) (human, UniProt P07766 23-207)
T1 construct: Target of the anti-hCD3e antibodies on human PBMC, Jurkat cells and cells expressing human CD3e; on T cells it is part of the CD3/TCR complex; also called hCD3e; CD3e on human PBMC
assay_summary: flow cytometry, human PBMC, antibody 0.01 ug/mL, anti-human IgG Fc-Alexa Fluor647 (1:500), anti-hTcRβ-PerCP (1:30)
readout: upper right quadrant, percent of cells AF647+ / hTcRβ-PerCP+

[
  {
    "binder": "10A4-H4K1-IgG1-LALA (antibody, V domains shown, Humanized; human IgG1 with LALA mutations; also called H4K1 (humanized 10A4)) VH: QVQLQQSGAEVKKPGASVRISCKASGYTFTSYYIHWVRQRPGQGLEFIGWIYPGNVNAKYNEKFKGRATLTTDKSASTAYMELSSLRSEDTAVYFCAIKGGNYDWGQGTLVTVSS VL: DVVMTQSPLSLPVTLGQPASISCQSSQSLLDSDGKTYLNWLQQRPGQSPRRLIYLVSKLGSGVPDRFSGSGSGTDFTLKISRVEAEDVGVYYCWQGTHFPRTFGGGTKVEIK",
    "readout_value": "12%"
  },
  {
    "binder": "10A4-H1K2-IgG1-LALA (antibody, V domains shown, Humanized; human IgG1 with LALA mutations; also called H1K2 (humanized 10A4)) VH: QVQLVQSGAEVKKPGASVKVSCKASGYTFTSYYIHWVRQAPGQRLEFIGWIYPGNVNAKYNEKFKGRVTITTDKSASTAYMELSSLRSEDTAVYYCAIKGGNYDWGQGTLVTVSS VL: DVVMTQSPLSLPVTLGQPASISCQSSQSLLDSDGKTYLNWLQQRPGQSPRRLIYLVSKLGSGVPDRFSGSGSGTDFTLKISRVEAEDVGVYYCWQGTHFPRTFGGGTKLEIK",
    "readout_value": "11.6%"
  },
  {
    "binder": "10A4-H4K2-IgG1-LALA (antibody, V domains shown, Humanized; human IgG1 with LALA mutations; also called H4K2 (humanized 10A4)) VH: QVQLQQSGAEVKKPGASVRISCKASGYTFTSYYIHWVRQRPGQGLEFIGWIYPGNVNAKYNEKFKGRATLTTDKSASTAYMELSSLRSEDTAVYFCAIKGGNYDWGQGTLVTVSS VL: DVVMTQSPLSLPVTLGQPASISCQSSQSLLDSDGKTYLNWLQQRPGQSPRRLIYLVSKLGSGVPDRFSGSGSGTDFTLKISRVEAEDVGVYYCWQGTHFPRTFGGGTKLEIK",
    "readout_value": "16%"
  },
  {
    "binder": "10A4-H3K1-IgG1-LALA (antibody, V domains shown, Humanized; human IgG1 with LALA mutations; also called H3K1 (humanized 10A4)) VH: QVQLVQSGAEVKKPGASVKISCKASGYTFTSYYIHWVRQRPGQRLEFIGWIYPGNVNAKYNEKFKGRATLTTDKSASTAYMELSSLRSEDTAVYFCAIKGGNYDWGQGTLVTVSS VL: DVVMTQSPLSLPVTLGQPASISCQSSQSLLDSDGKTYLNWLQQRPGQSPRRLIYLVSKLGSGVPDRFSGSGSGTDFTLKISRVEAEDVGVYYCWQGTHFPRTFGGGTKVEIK",
    "readout_value": "12.9%"
  },
  {
    "binder": "10A4-H2K2-IgG1-LALA (antibody, V domains shown, Humanized; human IgG1 with LALA mutations; also called H2K2 (humanized 10A4)) VH: QVQLVQSGAEVKKPGASVKISCKASGYTFTSYYIHWVRQAPGQRLEFIGWIYPGNVNAKYNEKFKGRATITTDKSASTAYMELSSLRSEDTAVYYCAIKGGNYDWGQGTLVTVSS VL: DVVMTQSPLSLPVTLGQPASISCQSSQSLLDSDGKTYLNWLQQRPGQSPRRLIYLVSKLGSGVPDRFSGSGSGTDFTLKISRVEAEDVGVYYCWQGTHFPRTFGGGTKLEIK",
    "readout_value": "11.6%"
  },
  {
    "binder": "10A4-H1K1-IgG1-LALA (antibody, V domains shown, Humanized; human IgG1 with LALA mutations; also called H1K1 (humanized 10A4)) VH: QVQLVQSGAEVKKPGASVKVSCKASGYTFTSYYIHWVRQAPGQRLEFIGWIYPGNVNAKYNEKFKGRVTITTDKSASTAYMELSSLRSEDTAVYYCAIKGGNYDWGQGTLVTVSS VL: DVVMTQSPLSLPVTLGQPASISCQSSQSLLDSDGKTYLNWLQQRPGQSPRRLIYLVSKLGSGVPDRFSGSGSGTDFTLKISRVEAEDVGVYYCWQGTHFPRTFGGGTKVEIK",
    "readout_value": "10.8%"
  }
]
